Molecular target: TAK1/TAB1 (Homo sapiens)
Sequence (Q15750 whole entry, the tested form may be a part): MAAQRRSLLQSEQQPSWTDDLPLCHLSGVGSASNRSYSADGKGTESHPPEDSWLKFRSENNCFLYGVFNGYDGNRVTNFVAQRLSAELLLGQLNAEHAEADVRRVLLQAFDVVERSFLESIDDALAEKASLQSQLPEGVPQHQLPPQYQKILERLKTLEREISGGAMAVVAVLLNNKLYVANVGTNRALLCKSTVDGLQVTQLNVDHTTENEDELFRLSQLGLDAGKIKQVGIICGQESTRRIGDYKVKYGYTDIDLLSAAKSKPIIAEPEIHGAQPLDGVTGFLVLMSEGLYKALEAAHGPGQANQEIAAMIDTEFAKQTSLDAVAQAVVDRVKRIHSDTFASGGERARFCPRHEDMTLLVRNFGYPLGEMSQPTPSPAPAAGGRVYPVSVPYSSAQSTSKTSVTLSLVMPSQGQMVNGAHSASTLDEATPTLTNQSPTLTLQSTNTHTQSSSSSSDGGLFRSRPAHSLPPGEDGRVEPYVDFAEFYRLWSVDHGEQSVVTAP
Sequence (O43318 whole entry, the tested form may be a part): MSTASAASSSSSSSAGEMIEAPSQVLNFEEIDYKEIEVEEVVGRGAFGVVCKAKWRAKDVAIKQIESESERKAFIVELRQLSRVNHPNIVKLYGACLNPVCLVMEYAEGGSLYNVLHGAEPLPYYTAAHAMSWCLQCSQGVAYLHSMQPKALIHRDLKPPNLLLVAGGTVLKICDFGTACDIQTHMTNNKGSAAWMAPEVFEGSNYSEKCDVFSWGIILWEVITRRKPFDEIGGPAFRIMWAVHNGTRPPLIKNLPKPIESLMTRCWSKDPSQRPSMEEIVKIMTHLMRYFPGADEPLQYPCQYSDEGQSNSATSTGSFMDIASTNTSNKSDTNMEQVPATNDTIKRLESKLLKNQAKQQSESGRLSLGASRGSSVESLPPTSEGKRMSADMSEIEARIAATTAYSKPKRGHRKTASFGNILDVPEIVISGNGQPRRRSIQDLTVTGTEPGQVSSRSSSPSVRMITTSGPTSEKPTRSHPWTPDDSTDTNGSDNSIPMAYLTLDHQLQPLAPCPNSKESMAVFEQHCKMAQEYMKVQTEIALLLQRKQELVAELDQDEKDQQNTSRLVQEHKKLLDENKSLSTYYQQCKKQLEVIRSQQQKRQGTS
Assay: Inhibition of truncated TAK1-TAB1(unknown origin) using MKK7 as substrate by ALPHAScreen assay in presence of ATP
Reported IC50 by item:
// return numeric value only (unit: nM, not printed)

Some molecules with known IC50 results, for comparison:
- QUERY SMILES: "CC(=O)N1CCC(n2cc(-c3cnc(N)c4oc(C5CCCCC5)cc34)cn2)CC1"
  OBSERVED RESULT: 650
- QUERY SMILES: "CC(=O)N1CCC(n2cc(-c3cnc(N)c4oc(-c5ccsc5)cc34)cn2)CC1"
  OBSERVED RESULT: 480
- QUERY SMILES: "CC(=O)N1CCC(n2cc(-c3cnc(N)c4oc(-c5cccc(S(C)(=O)=O)c5)cc34)cn2)CC1"
  OBSERVED RESULT: 4900
- QUERY SMILES: "CC(=O)N1CCC(n2cc(-c3cnc(N)c4oc(-c5ccc(CC#N)cc5)cc34)cn2)CC1"
  OBSERVED RESULT: 1500
- QUERY SMILES: "CC(=O)N1CCC(n2cc(-c3cnc(N)c4oc(-c5cccc(C#N)c5)cc34)cn2)CC1"
  OBSERVED RESULT: 250

Task: Answer with the recorded IC50 of CC(=O)N1CCC(n2cc(-c3cnc(N)c4oc(-c5ccc(NS(C)(=O)=O)cc5)cc34)cn2)CC1 only.
Result: 4900

Task: Answer with the recorded IC50 of CC(=O)N1CCC(n2cc(-c3cnc(N)c4oc(-c5cn(C)c6cnccc56)cc34)cn2)CC1 only.
Result: 18

Task: Answer with the recorded IC50 of CC(=O)N1CCC(n2cc(-c3cnc(N)c4oc(-c5cccc6ccccc56)cc34)cn2)CC1 only.
Result: 1000

Task: Answer with the recorded IC50 of CC(=O)N1CCC(n2cc(-c3cnc(N)c4oc(-c5ccc(C#N)cc5)cc34)cn2)CC1 only.
Result: 2500

Task: Answer with the recorded IC50 of CC(=O)N1CCC(n2cc(-c3cnc(N)c4oc(-c5cccc(S(=O)(=O)N(C)C)c5)cc34)cn2)CC1 only.
Result: 1400

Task: Answer with the recorded IC50 of Nc1ncc(-c2cnn(C3CCNCC3)c2)c2cc(-c3cccc4ccsc34)oc12 only.
Result: 1200

Task: Answer with the recorded IC50 of CC(=O)N1CCC(n2cc(-c3cnc(N)c4oc(-c5cnsc5)cc34)cn2)CC1 only.
Result: 880

Task: Answer with the recorded IC50 of CC(=O)c1ccccc1-c1cc2c(-c3cnn(C4CCN(C(C)=O)CC4)c3)cnc(N)c2o1 only.
Result: 5400

Task: Answer with the recorded IC50 of COc1cccc(-c2cc3c(-c4cnn(C5CCN(C(C)=O)CC5)c4)cnc(N)c3o2)c1 only.
Result: 1800

Task: Answer with the recorded IC50 of CC(=O)N1CCC(n2cc(-c3cnc(N)c4oc(C5=CCNCC5)cc34)cn2)CC1 only.
Result: 800

Task: Answer with the recorded IC50 of CC(=O)Nc1cccc(-c2cc3c(-c4cnn(C5CCN(C(C)=O)CC5)c4)cnc(N)c3o2)c1 only.
Result: 3200

Task: Answer with the recorded IC50 of CC(=O)N1CCC(n2cc(-c3cnc(N)c4oc(-c5cccc(OC(F)(F)F)c5)cc34)cn2)CC1 only.
Result: 3500
